system: OVCAR-8 ovarian; assay: NCI tumour cell line growth inhibition, 48 h; in the data active means GI50 below about 0.43 µM; inactive means the rest
Form entry, call: pick from 1 (yes) for active, 0 (no) for inactive

Query: recorded result category for O=[N+]([O-])c1ccc(NC(c2ccccc2)c2ccc3cccnc3c2O)cc1 (stereo not given) in this test
0 (no)

Query: recorded result category for Cc1cccc(Nc2ncc(-c3ccccc3)o2)c1 in this test
0 (no)

Query: recorded result category for O=C(Nc1n[nH]c2cc(-c3ccc(F)cc3)ccc12)C1CC1 in this test
0 (no)

Query: recorded result category for c1ccc(OCC[P+](c2ccccc2)(c2ccccc2)c2ccccc2)cc1 in this test
0 (no)

Query: recorded result category for N/C(=N/O)NOCCC(N)C(=O)O (stereo not given) in this test
0 (no)

Query: recorded result category for CC(=O)Nc1ccc2c(c1)[nH]c(=O)c1cc(NC(C)=O)ccc12 in this test
0 (no)

Query: recorded result category for C[C@H]1O[C@@H](O[C@H]2[C@@H](O)C[C@H](O[C@H]3[C@@H](O)C[C@H](O[C@H]4CC[C@]5(C)C6CC[C@]7(C)[C@@H](C8=CC(=O)OC8)CC[C@]7(O)C6CC[C@@H]5C4)O[C@@H]3C)O[C@@H]2C)C[C@H](O)[C@@H]1O (stereo not given in full) in this test
1 (yes)

Query: recorded result category for Cc1cc(C(=O)NOCCO)c(Nc2ccc(I)cc2F)n(C)c1=O in this test
0 (no)

Query: recorded result category for [N-]=[N+]=NCCCn1c2c(c3ccccc3c1=O)C(=O)c1cc3c(cc1-2)OCO3 in this test
0 (no)

Query: recorded result category for CCCCCCCN(CCCCCCC)C(=N)c1ccc(OC)c2ccccc12 in this test
0 (no)
